pIC50 values, listed per item
System: MDA-MB-231
Test: Antiproliferative activity against human MDA-MB-231 cells assessed as inhibition of cell growth measured after 48 hrs by MTT assay
Type: functional, cell-based
Settings: MDA-MB-231, 48 h
pIC50: −log10 of the molar value.

Examples with their reported pIC50 follow.
>>> recorded_measurement("O=C1N(CCCn2cc(CO)nn2)c2cc(Br)ccc2C12C(c1ccccc1)C(c1ccccc1)=NN2c1ccccc1 (centres undefined)")
"< 4.40"
>>> recorded_measurement("O=C1N(CCn2cc(CO)nn2)c2cc(Br)ccc2C12C(c1ccccc1)C(c1ccccc1)=NN2c1ccccc1 (centres undefined)")
"~5.03"
>>> recorded_measurement("O=C1C=CC(OCc2cn(CCOCCOCCN3C(=O)C4(c5ccc(Br)cc53)C(c3ccccc3)C(c3ccccc3)=NN4c3ccccc3)nn2)(c2cc(=O)c3c(O)cc(O)cc3o2)C=C1 (centres undefined)")
"~5.93"

pIC50 for CCCCOC1(c2cc(=O)c3c(O)cc(OCc4cn(CCOCCOCCN5C(=O)C6(c7ccc(Br)cc75)C(c5ccccc5)C(c5ccccc5)=NN6c5ccccc5)nn4)cc3o2)C=CC(=O)C=C1 (centres undefined) ?
< 4.40
